These compounds were tested on Sialic acid-binding Ig-like lectin 7 (Homo sapiens, UniProt Q9Y286); IC50 is the recorded read-out.
Sequence (Q9Y286 whole entry, the tested form may be a part): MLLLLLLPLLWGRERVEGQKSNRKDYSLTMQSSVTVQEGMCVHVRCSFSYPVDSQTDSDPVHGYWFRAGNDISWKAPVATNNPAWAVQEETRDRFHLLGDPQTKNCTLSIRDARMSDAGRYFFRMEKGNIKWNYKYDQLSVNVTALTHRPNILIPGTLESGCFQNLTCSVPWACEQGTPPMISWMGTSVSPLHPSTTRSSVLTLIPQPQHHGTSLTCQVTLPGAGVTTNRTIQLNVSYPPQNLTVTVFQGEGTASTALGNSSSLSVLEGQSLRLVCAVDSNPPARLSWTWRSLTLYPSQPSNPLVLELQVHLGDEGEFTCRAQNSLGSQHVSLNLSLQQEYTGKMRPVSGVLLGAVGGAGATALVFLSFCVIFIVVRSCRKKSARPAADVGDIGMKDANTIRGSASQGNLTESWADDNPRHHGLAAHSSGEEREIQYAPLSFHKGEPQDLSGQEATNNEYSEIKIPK

| structureString | IC50 / mM |
| --- | --- |
| CO[C@]1(C(=O)O)C[C@H](O)[C@@H](NC(C)=O)[C@H]([C@H](O)[C@H](O)CNC(=O)C(N)=O)O1 | 1.64 |
| CO[C@]1(C(=O)O)C[C@H](O)[C@@H](NC(C)=O)[C@H]([C@H](O)[C@H](O)CO)O1 | 8.07 |

###

# systemName: Sialic acid-binding Ig-like lectin 7 (Homo sapiens, UniProt Q9Y286)
# measurementDescription: Potency index, ratio of IC50 for compound-1 to IC50 for test compound for binding affinity to human IgG1-fused human Siglec-7-FC (Gln19 to Gly357 residues) assessed as inhibition Siglec-7-Fc binding to RBC pre-incubated for 10 mins before 20 mins incubation with RBCs by flow cytometry
This section presents compounds with their documented Ratio IC50 values.

| compound | Ratio IC50 |
| --- | --- |
| CNC(=O)C(=O)NC[C@@H](O)[C@@H](O)[C@@H]1O[C@@](OC)(C(=O)O)C[C@H](O)[C@H]1NC(C)=O | < 2 |
| CCNC(=O)C(=O)NC[C@@H](O)[C@@H](O)[C@@H]1O[C@@](OC)(C(=O)O)C[C@H](O)[C@H]1NC(C)=O | < 2 |
| CCC(C)NC(=O)C(=O)NC[C@@H](O)[C@@H](O)[C@@H]1O[C@@](OC)(C(=O)O)C[C@H](O)[C@H]1NC(C)=O (mixture of isomers) | < 2 |
| CO[C@]1(C(=O)O)C[C@H](O)[C@@H](NC(C)=O)[C@H]([C@H](O)[C@H](O)CNC(=O)C(=O)Nc2ccccc2)O1 | 58 |
| CO[C@]1(C(=O)O)C[C@H](O)[C@@H](NC(C)=O)[C@H]([C@H](O)[C@H](O)CNC(=O)C(=O)NC(C)C)O1 | < 2 |
| CO[C@]1(C(=O)O)C[C@H](O)[C@@H](NC(C)=O)[C@H]([C@H](O)[C@H](O)CO)O1 | 1 |
| CO[C@]1(C(=O)O)C[C@H](O)[C@@H](NC(C)=O)[C@H]([C@H](O)[C@H](O)CNC(=O)C(N)=O)O1 | 4.1 |
| CO[C@]1(C(=O)O)C[C@H](O)[C@@H](NC(C)=O)[C@H]([C@H](O)[C@H](O)CNC(=O)C(=O)NCc2ccccc2)O1 | 8 |
| CO[C@]1(C(=O)O)C[C@H](O)[C@@H](NC(C)=O)[C@H]([C@H](O)[C@H](O)CNC(=O)C(=O)NCc2ccc(-c3ccccc3)cc2)O1 | 8 |
| CO[C@]1(C(=O)O)C[C@H](O)[C@@H](NC(C)=O)[C@H]([C@H](O)[C@H](O)CNC(=O)C(=O)NC(C)(C)C)O1 | < 2 |

This collection of values is drawn from ChEMBL document CHEMBL3603750.
